Source listed as patent US6440997B2.

target: UniProt Q9R0C9
Sequence (Q9R0C9 whole entry): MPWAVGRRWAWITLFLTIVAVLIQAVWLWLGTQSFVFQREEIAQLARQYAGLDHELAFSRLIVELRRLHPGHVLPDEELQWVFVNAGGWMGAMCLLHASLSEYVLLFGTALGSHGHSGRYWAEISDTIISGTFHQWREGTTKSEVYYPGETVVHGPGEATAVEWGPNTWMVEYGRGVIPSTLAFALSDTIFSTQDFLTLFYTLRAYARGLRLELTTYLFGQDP
Measured IC50 of individual entries
measured-metric: IC50 (nM)

1) Clc1ccc(/C=C/CC2CCCCN2CC2CC2)cc1Cl (single isomer, unassigned; (-)) [eutomer (I)] : 17.9
2) Clc1ccc(/C=C/CC2CCCCN2CC2CC2)cc1Cl (single isomer, unassigned; (+)) : 21.8
3) Clc1ccc(C=CCC2CCCCN2CC2CC2)cc1Cl (racemic) [(+/−) parent racemate] : 44.1
